- TEST TARGET: human TRPM8 (Homo sapiens, UniProt Q7Z2W7)
- Construct: expressed in transfected cells; host or cells: Chinese hamster ovary (CHO) cells, T-REx tetracycline-inducible system, co-transfected with aequorin
- Sequence (Q7Z2W7 whole entry): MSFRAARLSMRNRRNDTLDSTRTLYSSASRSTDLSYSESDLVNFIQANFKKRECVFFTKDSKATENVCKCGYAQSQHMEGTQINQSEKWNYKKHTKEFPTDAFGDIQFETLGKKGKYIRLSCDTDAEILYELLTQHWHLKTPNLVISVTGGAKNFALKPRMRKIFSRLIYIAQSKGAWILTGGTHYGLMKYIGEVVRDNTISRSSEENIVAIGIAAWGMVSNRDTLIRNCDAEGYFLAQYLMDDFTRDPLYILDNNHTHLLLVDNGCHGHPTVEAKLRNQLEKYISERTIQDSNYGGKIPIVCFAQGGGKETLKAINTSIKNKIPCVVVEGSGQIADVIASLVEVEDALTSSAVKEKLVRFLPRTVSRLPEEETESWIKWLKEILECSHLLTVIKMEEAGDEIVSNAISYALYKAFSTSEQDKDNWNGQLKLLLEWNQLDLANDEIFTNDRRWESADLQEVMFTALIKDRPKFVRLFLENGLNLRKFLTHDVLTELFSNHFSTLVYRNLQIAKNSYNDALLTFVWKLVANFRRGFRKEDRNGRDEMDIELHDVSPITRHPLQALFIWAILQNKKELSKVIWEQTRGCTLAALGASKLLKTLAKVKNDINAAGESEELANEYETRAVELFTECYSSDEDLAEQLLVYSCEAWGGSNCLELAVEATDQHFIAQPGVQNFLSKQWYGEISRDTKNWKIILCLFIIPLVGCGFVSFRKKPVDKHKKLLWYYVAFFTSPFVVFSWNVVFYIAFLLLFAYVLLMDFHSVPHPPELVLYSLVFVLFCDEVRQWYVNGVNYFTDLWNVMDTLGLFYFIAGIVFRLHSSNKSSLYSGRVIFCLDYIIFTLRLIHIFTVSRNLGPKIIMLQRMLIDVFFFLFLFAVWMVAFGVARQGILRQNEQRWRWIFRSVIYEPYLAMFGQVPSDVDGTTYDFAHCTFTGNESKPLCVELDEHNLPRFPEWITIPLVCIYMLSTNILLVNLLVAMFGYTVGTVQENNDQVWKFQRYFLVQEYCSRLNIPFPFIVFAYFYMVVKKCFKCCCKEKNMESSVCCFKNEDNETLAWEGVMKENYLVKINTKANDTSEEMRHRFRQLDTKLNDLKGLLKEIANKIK
- PROTOCOL SUMMARY: Luminescence readout assay for measuring intracellular calcium, icilin activation
- Assay type: cell-based
- CONDITION SUMMARY: CHO cells expressing human TRPM8, aequorin luminescence, 1 μM icilin activation; read-out: hTRPM8 IC50
# IC50 annotations
Give me the value, and tack the unit on after it.

// solved cases for IC50 follow
[[record]]
compound = "O=C(N[C@@H](c1cc(F)cc(C(F)(F)F)c1)c1ncccc1F)c1ccc(=O)[nH]c1 [Example 327]"
test_target = "human TRPM8 (Homo sapiens, UniProt Q7Z2W7)"
test_value = "302 nM"

[[record]]
compound = "O=C(N[C@@H](c1ccc(F)c(F)c1)c1ncccc1F)c1ccc(=O)[nH]c1 [Example 331]"
test_target = "human TRPM8 (Homo sapiens, UniProt Q7Z2W7)"
test_value = "965 nM"

[[record]]
compound = "O=C(N[C@@H](c1ccc(C(F)(F)F)cc1)c1ncccc1Br)c1ccc2cccnc2c1 [Example 195]"
test_target = "human TRPM8 (Homo sapiens, UniProt Q7Z2W7)"
test_value = "50.6 nM"

[[record]]
compound = "O=C(N[C@@H](c1ccc(C(F)(F)F)c(F)c1)c1ncccc1C(F)(F)F)[C@@H]1CCCO1 [Example 119]"
test_target = "human TRPM8 (Homo sapiens, UniProt Q7Z2W7)"
test_value = "100 nM"

[[record]]
compound = "Cn1cc(C(=O)N[C@@H](c2ccc(C(F)(F)F)cc2)c2ncccc2F)ccc1=O [Example 68]"
test_target = "human TRPM8 (Homo sapiens, UniProt Q7Z2W7)"
test_value = "14.2 nM"


IN: Give IC50 (human TRPM8 (Homo sapiens, UniProt Q7Z2W7)) of the following compound: O=C(N[C@@H](c1ccc(C(F)(F)F)cc1)c1ncccc1F)c1ccc2nccc(O)c2c1 [Example 114, 2,2,2-trifluoroacetate]
OUT: 50.6 nM

IN: What do you get for CC(=O)Oc1ccc(C(=O)N[C@@H](c2ccc(C(F)(F)F)cc2)c2ncccc2C(F)(F)F)cc1 [Example 174] ?
OUT: 22.9 nM

IN: What do you get for Cn1cc(C(=O)N[C@@H](c2ccc(OC(F)(F)F)cc2)c2ccccn2)ccc1=O [Example 378] ?
OUT: 50.3 nM

IN: What do you get for CC(C)(O)Cn1cc(C(=O)N[C@@H](c2ccc(OC(F)(F)F)c(F)c2)c2ncccc2F)ccc1=O [Example 302] ?
OUT: 70.9 nM

IN: What do you get for O=C(N[C@@H](c1ccc(C(F)(F)F)cc1)c1ncccc1F)c1ccc2c(O)ccnc2c1 [Example 105, 2,2,2-trifluoroacetate] ?
OUT: 10.8 nM

IN: What do you get for COc1ncccc1C(=O)NC(c1ccc(C(F)(F)F)cc1)c1ncccc1F (stereo not drawn) [Example 36] ?
OUT: 73 nM

IN: What do you get for O=C(N[C@@H](c1ccc(C(F)(F)F)cc1)c1ncccc1C(F)(F)F)c1ccnnc1 [Example 212] ?
OUT: 81.5 nM
